# Dmax values compiled below
Target entity: BRAF V600E (Homo sapiens, UniProt P15056, V600E)
Construct: expressed in transfected cells
Sequence (P15056 whole entry V600E): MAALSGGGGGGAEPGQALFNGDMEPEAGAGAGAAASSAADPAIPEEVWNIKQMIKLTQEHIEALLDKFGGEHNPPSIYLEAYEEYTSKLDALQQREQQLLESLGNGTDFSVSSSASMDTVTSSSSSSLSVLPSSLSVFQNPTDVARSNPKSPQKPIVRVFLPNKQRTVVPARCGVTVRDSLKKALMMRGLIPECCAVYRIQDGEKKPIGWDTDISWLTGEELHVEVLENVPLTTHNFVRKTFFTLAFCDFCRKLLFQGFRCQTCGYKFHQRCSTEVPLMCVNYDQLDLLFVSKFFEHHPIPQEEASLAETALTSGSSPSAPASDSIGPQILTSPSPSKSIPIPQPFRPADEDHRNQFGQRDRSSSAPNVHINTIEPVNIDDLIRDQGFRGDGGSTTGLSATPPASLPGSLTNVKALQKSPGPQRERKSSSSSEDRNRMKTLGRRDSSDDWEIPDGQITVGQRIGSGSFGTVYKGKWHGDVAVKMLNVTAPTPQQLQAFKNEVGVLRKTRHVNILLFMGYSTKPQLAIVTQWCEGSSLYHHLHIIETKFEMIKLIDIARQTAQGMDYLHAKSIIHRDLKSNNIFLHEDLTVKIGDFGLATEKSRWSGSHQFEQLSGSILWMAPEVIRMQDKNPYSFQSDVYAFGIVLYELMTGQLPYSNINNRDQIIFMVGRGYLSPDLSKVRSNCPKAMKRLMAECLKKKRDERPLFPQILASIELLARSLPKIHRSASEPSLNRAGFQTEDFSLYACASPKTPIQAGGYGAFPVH
Experimental protocol: Cellular assay of target protein degradation, T-Rex 293 cells stably transfected with HA-BRAF_V600E (HA immunofluorescence, high content imaging)
Type: cell-based
Assay setup: maximum degradation observed, T-Rex 293 HA-BRAF V600E

For orientation, consider the following solved cases.
{"Molecule": "CCCS(=O)(=O)Nc1ccc(F)c(-n2cc(-c3cncnc3)c3nc(N(C)C4CCN(C(=O)CCOCCOCCOCCOCCNc5cccc6c5C(=O)N(C5CCC(=O)NC5=O)C6=O)CC4)ccc32)c1F (stereo not drawn)", "Dmax": "35 to 70%"}
{"Molecule": "O=C1CCC(N2Cc3cc(C4CCN(CC5CCN(c6c(F)cc(-c7cnc8[nH]cc(C(=O)c9c(F)ccc(NS(=O)(=O)N%10CC[C@@H](F)C%10)c9F)c8c7)cc6F)CC5)CC4)ccc3C2=O)C(=O)N1 (stereo partly drawn)", "Dmax": "35 to 70%"}
{"Molecule": "O=C1CC[C@@H](N2Cc3cc(N4CC(CN5C[C@@H]6CN(c7ccc(-c8cnc9[nH]cc(C(=O)c%10c(F)ccc(NS(=O)(=O)N%11CC[C@@H](F)C%11)c%10F)c9c8)cc7)C[C@@H]6C5)C4)ccc3C2=O)C(=O)N1", "Dmax": "35 to 70%"}
{"Molecule": "CNc1cc(-c2cnc3[nH]cc(C(=O)c4c(F)ccc(NS(=O)(=O)N5CC[C@@H](F)C5)c4F)c3c2)ccc1N1CCC(CN2CCC(c3ccc4c(c3)CN(C3CCC(=O)NC3=O)C4=O)CC2)CC1 (stereo partly drawn)", "Dmax": "35 to 70%"}
{"Molecule": "CNc1cc(-c2cnc3[nH]cc(C(=O)c4c(F)ccc(NS(=O)(=O)N5CC[C@@H](F)C5)c4F)c3c2)cc(NC)c1N1CCC(CN2CCC(c3ccc4c(c3)CN(C3CCC(=O)NC3=O)C4=O)CC2)CC1 (stereo partly drawn)", "Dmax": "< 35%"}

q: Any idea what Dmax was measured for O=C1CC[C@@H](N2Cc3cc(OC[C@H](O)CN4CC5(C4)CN(c4ccc(-c6cnc7[nH]cc(C(=O)c8c(F)ccc(NS(=O)(=O)N9CC[C@@H](F)C9)c8F)c7c6)cc4)C5)ccc3C2=O)C(=O)N1 ?
a: 35 to 70%
